- Test system: MDA-MB-436
- Assay details: normalised viability (% of control), CellTiter-Blue; higher = more viable cells (about 100 = DMSO control)
- Run conditions: 1000 nM; incubation time: 72 h
This listing pairs compounds with measured normalised viability.
A number alone suffices; assume %.

Guide cases for normalised viability, answers given:
Problem: Consider the compound shown here: COc1cc(OC2CCN(C)CC2)ccc1Nc1ncc2c(n1)n(C1CCCC1)c(=O)n2C What is its recorded normalised viability?
Solution: 94.4

Problem: Dear colleague, I am looking for the recorded normalised viability of the following compound: CNC(=O)c1cc(Oc2ccc(NC(=O)Nc3ccc(Cl)c(C(F)(F)F)c3)c(F)c2)ccn1
Solution: 102

Problem: Can you share its normalised viability? I mean this compound: CC(C)C[C@@H](C(=O)N[C@H](C(=O)OC1CCCC1)c1ccccc1)[C@H](O)C(=O)NO
Solution: 73.1

Attention now shifts to the item below.
Problem: Reported normalised viability for O=C(Nc1cccnc1)N1CCC(Cc2cccc(Oc3ccc(C(F)(F)F)cn3)c2)CC1 : what is it?
Solution: 116

----------
- System: CAL-51
- Assay details: normalised viability (% of control), CellTiter-Blue; higher = more viable cells (about 100 = DMSO control)
- Run conditions: incubation time: 72 h
Measured endpoint: normalised viability (%)
Just the number in %, nothing appended.

Answered examples (3):
Problem: Any idea what normalised viability was measured for COc1cc(OC2CCN(C)CC2)ccc1Nc1ncc2c(n1)n(C1CCCC1)c(=O)n2C [AZ 3146] (1000 nM) ?
Solution: 75.2

Problem: Which normalised viability reading was recorded for the compound C=C1C[C@@H]2[C@H](CC[C@]3(C)C(=O)CC[C@@H]23)[C@@]2(C)C=CC(=O)C=C12 [Exemestane] (1000 nM) ?
Solution: 96.5

Problem: normalised viability lookup needed for CO[C@H]1C[C@@H]2CC[C@@H](C)[C@@](O)(O2)C(=O)C(=O)N2CCCC[C@H]2C(=O)O[C@H]([C@H](C)C[C@@H]2CC[C@@H](OP(C)(C)=O)[C@H](OC)C2)CC(=O)[C@H](C)/C=C(\C)[C@@H](O)[C@@H](OC)C(=O)[C@H](C)C[C@H](C)/C=C/C=C/C=C/1C [Ridaforolimus] (100 nM) , thanks.
Solution: 39.4

***
Problem: Entry under review: Nc1cc(C(F)(F)F)c(-c2cc(N3CCOCC3)nc(N3CCOCC3)n2)cn1 [BKM-120] (1000 nM) . Reported normalised viability?
Solution: 56.9

Problem: Suppose we examine the compound Cc1[nH]c2ccccc2c1CCNCc1ccc(/C=C/C(=O)NO)cc1 [Panobinostat] (100 nM) ; what normalised viability value has been reported?
Solution: 25.6

----------
- System: CAL-120
- Run conditions: 72 h
Measured endpoint: EC50, CellTiter-Blue viability (nM)
Your answer is read as nM, so omit the unit and give the number.

Consider the worked cases shown below.
Problem: Sample NC(=O)c1ccc(I)c([N+](=O)[O-])c1 — what was its EC50, CellTiter-Blue viability?
Solution: 3290

Problem: # EC50, CellTiter-Blue viability lookup, item Nc1cc(C(F)(F)F)c(-c2cc(N3CCOCC3)nc(N3CCOCC3)n2)cn1
Solution: 887

Problem: Param item = Cc1cc(Nc2cc(CN3CCOCC3)c3nc(C)c(Cc4ccc(Cl)cc4F)n3n2)n[nH]1 ; retrieve measured EC50, CellTiter-Blue viability.
Solution: 877

Problem: So what does the record say about EC50, CellTiter-Blue viability for CO[C@H]1C[C@@H]2CC[C@@H](C)[C@@](O)(O2)C(=O)C(=O)N2CCCC[C@H]2C(=O)O[C@H]([C@H](C)C[C@@H]2CC[C@@H](OP(C)(C)=O)[C@H](OC)C2)CC(=O)[C@H](C)/C=C(\C)[C@@H](O)[C@@H](OC)C(=O)[C@H](C)C[C@H](C)/C=C/C=C/C=C/1C ?
Solution: 1

Problem: Sample COC(=O)c1ccc2c(c1)NC(=O)/C2=C(\Nc1ccc(N(C)C(=O)CN2CCN(C)CC2)cc1)c1ccccc1 — what was its EC50, CellTiter-Blue viability?
Solution: 3640

Continuing:
Problem: Requested field: EC50, CellTiter-Blue viability. Item: O=C(/C=C/c1cccc(S(=O)(=O)Nc2ccccc2)c1)NO
Solution: 204

Problem: Entry Cc1[nH]c2ccccc2c1CCNCc1ccc(/C=C/C(=O)NO)cc1 has what EC50, CellTiter-Blue viability?
Solution: 11.1
